System: SREBF1
Procedure details: qPCR SREBF1 transcript level in HepG2 cells
Type: cell-based, human
Set-up: key: A: Increase <2-fold; B: Increase >2-fold; X: Decrease <2-fold; Y: Decrease >2-fold; No significant change
Observed property: qPCR SREBF1

Check out these entries, answers already filled in.
Compound	Result
O=C(C[C@@H]1CC[C@@H]2[C@H](COC[C@H](O)CN2CCC(F)(F)F)O1)NCc1ccc(Oc2ccccc2)cc1 [Compound 10a]	N
O=C(C[C@H]1C[C@H]2c3cc(NS(=O)(=O)c4ccc(F)cc4)ccc3O[C@H]2[C@H](CO)O1)NCc1ccc(Oc2ccccc2)cc1 [Compound 13a]	N
Cc1cc(C(=O)Nc2ccc3c(c2)C(=O)N(C)[C@H]2CC[C@@H](CC(=O)NCc4ccc(-c5ccccc5)cc4)O[C@@H]2CO3)no1	N
O=C(C[C@H]1C[C@H]2c3cc(NC(=O)c4ccc5c(c4)OCO5)ccc3O[C@H]2[C@H](CO)O1)NCc1ccc(Oc2ccccc2)cc1 [Compound 11a]	Y (Decrease >2-fold)

Observed qPCR SREBF1 on SREBF1, entry O=C(C[C@H]1CC[C@H]2[C@@H](COC[C@@H](O)CN2Cc2ccc(Oc3ccccc3)cc2)O1)N1CCc2ccccc2C1 , equals N

Observed qPCR SREBF1 on SREBF1, entry CN(C)c1ccc2c(c1)[C@@H]1C[C@@H](CC(=O)NCc3ccc(Oc4ccccc4)cc3)O[C@@H](CO)[C@@H]1O2 [Compound 12a] , equals Y (Decrease >2-fold)
